- Target System: ΔF508-CFTR (Homo sapiens, UniProt P13569, DEL508-508)
- Construct: expressed in transfected cells
- Sequence (P13569 with tags, fused parts or gaps DEL508-508): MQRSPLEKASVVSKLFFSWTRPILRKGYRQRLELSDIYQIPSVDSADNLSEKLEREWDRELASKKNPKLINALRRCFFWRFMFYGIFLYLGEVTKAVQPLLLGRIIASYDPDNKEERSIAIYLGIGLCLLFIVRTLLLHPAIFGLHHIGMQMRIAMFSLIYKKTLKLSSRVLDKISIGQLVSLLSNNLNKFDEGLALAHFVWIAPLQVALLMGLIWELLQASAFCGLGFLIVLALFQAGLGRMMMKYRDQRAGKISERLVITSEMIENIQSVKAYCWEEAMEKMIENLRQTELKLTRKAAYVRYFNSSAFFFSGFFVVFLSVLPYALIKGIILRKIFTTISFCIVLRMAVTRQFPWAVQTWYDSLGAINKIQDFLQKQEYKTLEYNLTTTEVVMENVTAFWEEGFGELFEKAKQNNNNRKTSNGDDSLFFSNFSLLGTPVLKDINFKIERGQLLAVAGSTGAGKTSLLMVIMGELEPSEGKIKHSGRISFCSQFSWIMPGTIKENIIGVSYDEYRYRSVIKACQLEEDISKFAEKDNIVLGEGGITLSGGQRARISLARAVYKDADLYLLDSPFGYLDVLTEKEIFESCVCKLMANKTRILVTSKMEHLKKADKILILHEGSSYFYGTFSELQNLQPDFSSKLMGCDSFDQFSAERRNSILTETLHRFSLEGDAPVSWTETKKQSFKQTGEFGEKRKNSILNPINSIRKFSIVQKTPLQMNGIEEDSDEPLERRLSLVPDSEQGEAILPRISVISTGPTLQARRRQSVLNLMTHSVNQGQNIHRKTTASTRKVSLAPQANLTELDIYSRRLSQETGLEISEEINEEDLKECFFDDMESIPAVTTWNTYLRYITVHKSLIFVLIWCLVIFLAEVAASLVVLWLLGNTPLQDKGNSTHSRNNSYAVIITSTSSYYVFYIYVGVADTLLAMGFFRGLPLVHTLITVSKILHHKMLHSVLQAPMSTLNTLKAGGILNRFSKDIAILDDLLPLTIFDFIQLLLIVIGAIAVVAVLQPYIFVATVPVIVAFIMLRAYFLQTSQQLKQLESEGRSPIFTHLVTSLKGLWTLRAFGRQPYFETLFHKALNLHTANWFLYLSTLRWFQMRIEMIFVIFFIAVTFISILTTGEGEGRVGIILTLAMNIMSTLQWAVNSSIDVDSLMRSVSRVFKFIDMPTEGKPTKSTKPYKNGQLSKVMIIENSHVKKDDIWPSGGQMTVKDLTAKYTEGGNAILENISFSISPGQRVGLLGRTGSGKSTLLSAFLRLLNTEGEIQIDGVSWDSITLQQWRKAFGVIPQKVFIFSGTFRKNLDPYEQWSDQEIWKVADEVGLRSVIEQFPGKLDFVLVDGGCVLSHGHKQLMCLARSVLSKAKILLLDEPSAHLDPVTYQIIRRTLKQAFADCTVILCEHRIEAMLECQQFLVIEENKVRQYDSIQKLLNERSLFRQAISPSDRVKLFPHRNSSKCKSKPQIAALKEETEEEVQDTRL
- Assay Text: Membrane potential optical assay (FRET voltage-sensor dyes, VIPR), identification of potentiator compounds
- Type: cell-based
- Condition Description: Table 3; assay not given; read-out: % Activity (% Efficacy, relative efficacy)
- Source text: […]
Quantity Kind: Emax

Task item: Which Emax is reported for this molecule? "CCOc1ccccc1-c1ccc(CN)cc1NC(=O)c1c[nH]c2ccccc2c1=O"
Reply: 25 to 100%

Task item: Reported Emax, molecule "O=C(Nc1cc(Cl)cc(NS(=O)(=O)CCN2CCCCC2)c1)c1c[nH]c2ccccc2c1=O" : ____
Reply: 25 to 100%

Task item: Name the reported Emax value associated with the molecule "CCc1cccc2c(=O)c(C(=O)Nc3ccc(C(C)C)cc3C(F)(F)F)c[nH]c12"
Reply: < 25%

Task item: For the molecule "O=C(Nc1nc2ccccc2[nH]1)c1c[nH]c2ccccc2c1=O" , what Emax is on record?
Reply: < 25%

Task item: Recorded Emax for "Cc1ccc(-c2ccccc2NC(=O)c2c[nH]c3ccccc3c2=O)cc1C" , please?
Reply: 25 to 100%

Task item: Query (molecule): "O=C(Nc1ccccc1-c1ccccc1F)c1c[nH]c2ccccc2c1=O" ; field requested: Emax
Reply: 25 to 100%

Task item: // returns reported Emax for input "CCCCOC(=O)NCC(C)(C)c1ccc(NC(=O)c2c[nH]c3ccccc3c2=O)cc1"
Reply: 25 to 100%

Sourced from patent US8802700B2
